Biological target: PLpro (Severe acute respiratory syndrome coronavirus 2, UniProt P0DTC1)
Experiment: nanoDSF fluorescence titration (quenching of PLpro fluorescence)
Format: binding, SARS-CoV-2
Measured parameter: Kd

Memo: O=Cc1ccc(O)cc1 [HBA, 4-hydroxybenzaldehyde] , reported Kd: ~400 µM

###

Tested on: SARS-CoV-2
Test: microbe, parasite or virus in culture
Assay type: cell-based
Settings: Vero cells, MOI 0.01, 42 h, CellTiter-Glo; read-out: IC50 CPE inhibition
Measured parameter: IC50 (µM)
Number in µM, nothing else.

Memo: COC(=O)c1ccc(O)c(O)c1 [HE9, methyl 3,4-dihydroxybenzoate] , reported IC50: 10
